# testedSystem: Nuclear receptor subfamily 1 group I member 2 (Rattus norvegicus) (UniProt Q9R1A7)
# Sequence (Q9R1A7 whole entry, looked up): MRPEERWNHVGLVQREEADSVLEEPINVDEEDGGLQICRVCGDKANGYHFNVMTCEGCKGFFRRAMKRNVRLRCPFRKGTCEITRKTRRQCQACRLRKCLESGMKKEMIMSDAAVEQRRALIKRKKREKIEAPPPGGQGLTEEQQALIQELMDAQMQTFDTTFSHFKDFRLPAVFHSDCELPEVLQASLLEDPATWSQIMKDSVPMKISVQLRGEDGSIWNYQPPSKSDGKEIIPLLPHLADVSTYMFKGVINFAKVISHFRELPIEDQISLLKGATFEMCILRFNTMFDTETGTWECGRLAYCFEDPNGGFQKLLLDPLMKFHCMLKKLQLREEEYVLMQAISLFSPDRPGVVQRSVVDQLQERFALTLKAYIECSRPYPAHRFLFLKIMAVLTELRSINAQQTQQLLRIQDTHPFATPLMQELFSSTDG
# experimentalDetails: qHTS assay for small molecule activators of the rat pregnane X receptor (rPXR) signaling pathway (AID 651751); note: 0% is about no effect
# experimentalParameters: rPXR reporter cells, luciferase (One-Glo), 24 h
As shown below, each of these compounds has a reported max response value.
Enter your answer as a number in %; do not include the unit.

Would you please look over these solved cases?
CCOCCOC(C)=O ... -2.9
OCCCBr ... -2.6
Clc1cnc(Oc2ccc(Oc3ncc(Cl)cc3Cl)cc2)c(Cl)c1 ... 9.03
O=C(O)c1cc(Oc2ccc(C(F)(F)F)cc2Cl)ccc1[N+](=O)[O-] ... 2.53
Nc1c(Cl)c(Cl)c(Cl)c(Cl)c1Cl ... 0.456

If you can, please state the reported max response value of CS(=O)(=O)c1ccc(C(=O)C2C(=O)CCCC2=O)c([N+](=O)[O-])c1 .
1.13

Would you mind doing CC(C)(O)C(=O)Nc1ccc([N+](=O)[O-])c(C(F)(F)F)c1 as well?
-13.9

Would you mind doing Nc1ccc(Cl)cc1 as well?
3.79

Would you mind doing O=C(O)COc1ccccc1 as well?
-3.8

Would you mind doing Nc1ccc([N+](=O)[O-])cc1 as well?
-0.553

Would you mind doing O=[N+]([O-])c1c(Cl)c(Cl)cc(Cl)c1Cl as well?
3.25

###

# experimentalDetails: Immunotoxin (SS1P) sensitization/mitigation study. Vehicle arm (DMEM) (AID 1159513)
# experimentalParameters: cell viability with vehicle (DMEM); series mostly up to 46.1 µM
The source made the active and inactive calls. No rule for the calls is given here.
Give your call using only these classes: active, inactive

Please review the entries below; each comes with its answer.
Cc1[nH]c2ccccc2c1CCNCc1ccc(C=CC(=O)NO)cc1 ... active
COc1cc2nc(-c3ccc(N4CCN(C)CC4)cc3)nc(NCCN3CCOCC3)c2cc1OC ... active
COc1cc(Nc2ncc3c(n2)-c2ccc(Cl)cc2C(c2c(F)cccc2OC)=NC3)ccc1C(=O)O ... inactive

Could you please tell me the result logged for C[C@]1(CO)CN(c2cc(C(=O)Nc3ccc4c(c3)-c3c(c(C(N)=O)nn3-c3ccc(F)cc3)CC4)c(Cl)cn2)C[C@@]1(C)CO in this assay?
active

Would you mind doing C[C@@H]1CCN(C(=O)CC#N)C[C@@H]1N(C)c1ncnc2[nH]ccc12 as well?
inactive

Would you mind doing O=C(Nc1cc(Cl)cc2c1[nH]c1cnccc12)c1cccnc1 as well?
active

###

# System: ATS189
# experimentalDetails: qHTS profiling for inhibitors of Plasmodium falciparum proliferation (AID 504749); note: nearly all actives have a fitted effect of over 60% in size; note: potency is the fitted concentration of half-maximal effect
# experimentalParameters: P. falciparum in erythrocytes, SYBR Green DNA, 72 h; series mostly up to 28.7 µM
# Experimental: NIH National Institute of Allergy and Infectious Diseases [NIAID] NIH Chemical Genomics Center [NCGC] […] Because mature erythrocytes lack DNA, only Plasmodium-derived DNA is detected. NCGC Assay Protocol Summary: The SYBR Green viability assay was adapted from a method described previously (Plouffe et al., 2008). […] The following morning, fluorescence intensity at 485(14) nm excitation and 535(25) nm emission wavelengths was measured on an EnVision (Perkin Elmer) plate reader. […]
Results filed as inconclusive are left out. Activity calls are given as the source filed them. Calls follow the shape of the dose curve; as a rule, active = well fitted inhibition curve with a large enough effect; inconclusive = small, poorly fitted or top-dose-only effect; inactive = flat fitted curve, though single readings scatter.
assayEndpoint: Potency

Cc1cc(O)ccc1Cl ... inactive
CC(C)NC(C)Cc1ccc(I)cc1 (configuration not stated) ... inactive
CN1C2CCC1CC(OC(=O)c1cc(Cl)cc(Cl)c1)C2 (configuration not stated) ... inactive
CCCN1CCC[C@H](c2cccc(O)c2)C1 ... inactive
CN(C)[C@@H]1C(=O)C(C(N)=O)=C(O)[C@@]2(O)C(=O)C3=C(O)c4c(O)cccc4[C@@](C)(O)[C@H]3[C@H](O)[C@@H]12 ... inactive
C#CC1(O)CCC2C3CCC4=CC(=O)CCC4(C)C3CCC21C (configuration not stated) ... inactive
O=C(O)COc1ccccc1 ... inactive
O=[N+]([O-])c1ccc([As](=O)(O)O)cc1 ... 7.08 µM (active)

If you can, please state the reported Potency value of NC(=O)CN1CC(O)CC1=O (configuration not stated) .
inactive

Would you mind doing O=C(O)C(Cl)Cl as well?
inactive

Would you mind doing CCCCc1ccc(C(=O)O)nc1 as well?
inactive

Would you mind doing COC(=O)[C@@H](N)CCCN=C(N)N[N+](=O)[O-] as well?
inactive

###

# experimentalDetails: S16 Schwann cell PMP22 intronic element firefly luciferase assay (AID 624032); note: nearly all actives have a fitted effect of over 30% in size
# experimentalParameters: S16 rat Schwann cells, PMP22 element FLuc, 24 h; series mostly up to 57.5 µM
Records with an inconclusive call do not appear. Calls of active or inactive are those of the source. Calls follow the shape of the dose curve; as a rule, active = well fitted inhibition curve with a large enough effect; inconclusive = small, poorly fitted or top-dose-only effect; inactive = no such curve, though single readings can be large or run the other way.
Give your call using only these classes: active, inactive

Please review the entries below; each comes with its answer.
C1CCC(NC2CCCCC2)CC1 ... inactive
COC(=O)[C@@H](N)CCCN=C(N)N[N+](=O)[O-] ... inactive
NC1=NC(=O)N2CC12 (centres undefined) ... inactive
O=C(O)COc1ccccc1 ... inactive
Cc1ccc(Cl)c(O)c1 ... inactive
c1ccc(C2(c3ccccc3)CC2C2=NCCN2)cc1 (centres undefined) ... inactive
CCCCc1ccc(C(=O)O)nc1 ... inactive
CCCCCCCCCCCCCCCC[N+](C)(C)C ... active

Could you please tell me the result logged for CC(C)NC(C)Cc1ccc(I)cc1 (centres undefined) in this assay?
inactive

Would you mind doing O=C(O)C(Cl)Cl as well?
inactive

Would you mind doing CCCN1CCC[C@H](c2cccc(O)c2)C1 as well?
inactive

Would you mind doing CN(C)[C@@H]1C(=O)C(C(N)=O)=C(O)[C@@]2(O)C(=O)C3=C(O)c4c(O)cccc4[C@@](C)(O)[C@H]3[C@H](O)[C@@H]12 as well?
inactive

Would you mind doing O=[N+]([O-])c1ccc([As](=O)(O)O)cc1 as well?
inactive

Would you mind doing NC(=O)CN1CC(O)CC1=O (centres undefined) as well?
inactive

###

# experimentalDetails: Cell Viability - LYMP2-021 (AID 974);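 note: compound exposure lasts 24 hours at 37 °C; nearly all actives have a fitted effect of over 55% in size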
# experimentalParameters: LYMP2-021 lymphoblastoid cells viability; series mostly up to 92.2 µM
Inconclusive results are not listed. Calls of active or inactive are those of the source. The call rests on the fitted dose curve; in most records, active means well fitted cell-killing curve with a large enough effect; inconclusive means small, poorly fitted or top-dose-only effect; inactive means flat fitted curve, though single readings scatter.
Give your call using only these classes: active, inactive

Nc1ccc(Cl)cc1 ... inactive
CC(C)(O)C(=O)Nc1ccc([N+](=O)[O-])c(C(F)(F)F)c1 ... inactive

Could you please tell me the result logged for CCCCCCCCc1ccc(O)cc1 in this assay?
inactive

Would you mind doing CCOP(=O)(NC(C)C)Oc1ccc(SC)c(C)c1 (stereo not drawn) as well?
inactive

Would you mind doing COc1ccc(C(c2ccc(OC)cc2)C(Cl)(Cl)Cl)cc1 as well?
inactive

Would you mind doing Nc1ccc(Sc2ccc(N)cc2)cc1 as well?
inactive

Would you mind doing C1CCC(NC2CCCCC2)CC1 as well?
inactive

Would you mind doing OCCCBr as well?
inactive

Would you mind doing O=C(O)C(Cl)Cl as well?
inactive

Would you mind doing O=[N+]([O-])c1cc([N+](=O)[O-])c2ccccc2c1 as well?
inactive

Would you mind doing CC(=O)[O][Hg][c]1ccccc1 as well?
active

Would you mind doing CN(C)[C@@H]1C(=O)C(C(N)=O)=C(O)[C@@]2(O)C(=O)C3=C(O)c4c(O)cccc4[C@@](C)(O)[C@H]3[C@H](O)[C@@H]12 as well?
inactive

Would you mind doing O=[N+]([O-])c1c2ccccc2cc2ccccc12 as well?
inactive

###

# experimentalDetails: qHTS for Inhibitors of the Functional Ribonucleoprotein Complex (vRNP) of Lassa (LASV) Arenavirus: Viability assay - alamar blue signal for LASV Primary Screen (AID 1347083); note: nearly all actives have a fitted effect of over 80% in size
# experimentalParameters: cell viability, alamar blue fluorescence (LASV minigenome counter-screen); series mostly up to 57.5 µM
Inconclusive results are not listed. Calls of active or inactive are those of the source. Calls follow the shape of the full dose curve; tested in HEK293 reporter line.
Give your call using only these classes: active, inactive

CO[C@H]1C=CC=C(C)C(=O)NC2=CC(=O)C(NCCN(C)C)=C(C[C@@H](C)C[C@H](OC)[C@@H](O)[C@@H](C)C=C(C)[C@@H]1OC(N)=O)C2=O ... active
Cc1cccc(C=NNc2cc(N3CCOCC3)nc(OCCc3ccccn3)n2)c1 ... active
CN(C)C1CCN(C(=O)c2ccc(NC(=O)Nc3nc(N4CCOCC4)nc(N4CCOCC4)n3)cc2)CC1 ... active

Could you please tell me the result logged for CC[C@@H]1C(=O)N(C)c2cnc(Nc3ccc(C(=O)NC4CCN(C)CC4)cc3OC)nc2N1C1CCCC1 in this assay?
active

Would you mind doing CN(C)c1ccc(C2Nc3ccc4ccccc4c3C3=C2C(=O)CC(C)(C)C3)cc1Br (centres undefined) as well?
inactive

Would you mind doing COc1ccc2c(c1)CC[C@@H](CN(C)CC(=O)O)[C@H]2c1ccccc1 as well?
active

Would you mind doing CC[N+]1(CCOC(=O)C(O)(c2ccccc2)c2ccccc2)CCCCC1 as well?
inactive

Would you mind doing CC(=O)N(C)C1(c2ccccc2)CCN(CCC[C@]2(c3ccc(Cl)c(Cl)c3)CCCN(C(=O)c3ccccc3)C2)CC1 as well?
inactive

Would you mind doing CCN(CC)CCOc1ccc(Nc2ncc3cc(-c4c(Cl)cccc4Cl)c(=O)n(C)c3n2)cc1 as well?
active
